test system: human PKK mRNA; test: Antisense inhibition of human PKK mRNA in HepaRG cells, 1,000 nM, MOE/deoxy/cEt oligonucleotides (Example 3); format: cell-based; details: Table 22 experiment; HepaRG cells, electroporation with 1,000 nM antisense oligonucleotide, approx. 24 hours; PKK mRNA by RT-PCR (RTS3454), relative to untreated control cells
Strand notation (5' to 3'): a small letter for the sugar, then the base; units joined by * are phosphorothioate-linked, units joined directly phosphodiester-linked; [ ] holds rarer units or linkages, { } end groups; capitals alone tell only the bases. e = 2'-O-(2-methoxyethyl) (MOE); k = constrained ethyl (cEt); [5mC] = 5-methylcytosine; d = 2'-deoxy (DNA)
In this section, each of the substances is paired with its reported % inhibition.
Value expressed in %; do not type the unit.

Examples with answers:
547897 (eA*eT*kA*dG*dG*d[5mC]*dA*dA*dT*dT*dG*dT*dT*k[5mC]*k[5mC]*eG; antisense) [compound 547897] = 82
547917 (eA*e[5mC]*k[5mC]*d[5mC]*dT*dG*dG*d[5mC]*dA*dA*d[5mC]*dA*dT*k[5mC]*k[5mC]*eA; antisense) [compound 547917] = 54
547916 (e[5mC]*e[5mC]*kT*dG*dG*d[5mC]*dA*dA*d[5mC]*dA*dT*d[5mC]*d[5mC]*kA*k[5mC]*eA; antisense) [compound 547916] = 56
547878 (antisense e[5mC]*eA*kA*d[5mC]*dA*d[5mC]*dT*dG*d[5mC]*dT*dA*dA*d[5mC]*k[5mC]*kT*eT) [compound 547878] = 62
547888 (eT*e[5mC]*k[5mC]*dG*dG*dT*dA*d[5mC]*dT*d[5mC]*dT*dG*d[5mC]*k[5mC]*kT*eT; antisense) [compound 547888] = 99

Lookup result for 547850 (antisense eA*eA*kA*dT*dG*dT*d[5mC]*dT*d[5mC]*dG*dA*dT*dG*kG*k[5mC]*eA) [compound 547850] ; measured % inhibition: 80

Lookup result for 547867 (antisense e[5mC]*e[5mC]*kT*dT*dA*dG*dA*d[5mC]*dA*d[5mC]*dA*dT*dT*kA*kA*eA) [compound 547867] ; measured % inhibition: 53

Lookup result for 547881 (eA*eT*kT*d[5mC]*dT*dT*d[5mC]*dA*dA*d[5mC]*dA*d[5mC]*dT*kG*k[5mC]*eT; antisense) [compound 547881] ; measured % inhibition: 50

Lookup result for 547866 (antisense eT*eT*kA*dA*dA*dA*dT*dT*dG*dA*d[5mC]*dT*d[5mC]*k[5mC]*kT*e[5mC]) [compound 547866] ; measured % inhibition: 40

Lookup result for 547884 (e[5mC]*eG*kT*dG*dG*d[5mC]*dA*dT*dA*dT*dG*dA*dA*kA*kA*eA; antisense) [compound 547884] ; measured % inhibition: 49

Lookup result for 547912 (eA*eT*k[5mC]*d[5mC]*dA*d[5mC]*dA*dT*d[5mC]*dT*dG*dA*dG*kA*kA*e[5mC]; antisense) [compound 547912] ; measured % inhibition: 53

Lookup result for 547872 (antisense eT*eG*k[5mC]*dT*dA*dA*d[5mC]*d[5mC]*dT*dT*dA*dG*dA*k[5mC]*kA*e[5mC]) [compound 547872] ; measured % inhibition: 73

Lookup result for 547901 (e[5mC]*eT*kG*dT*dA*d[5mC]*dT*dT*dT*dA*dA*dT*dA*kG*kG*e[5mC]; antisense) [compound 547901] ; measured % inhibition: 85

Lookup result for 547868 (antisense eA*e[5mC]*k[5mC]*dT*dT*dA*dG*dA*d[5mC]*dA*d[5mC]*dA*dT*kT*kA*eA) [compound 547868] ; measured % inhibition: 71

Lookup result for 547909 (e[5mC]*e[5mC]*kA*dA*dT*dT*dT*d[5mC]*dT*dG*dA*dA*dA*kG*kG*eG; antisense) [compound 547909] ; measured % inhibition: 51

Lookup result for 547859 (antisense e[5mC]*e[5mC]*kT*d[5mC]*dT*d[5mC]*dA*dT*dA*dT*d[5mC]*dA*dA*k[5mC]*kT*e[5mC]) [compound 547859] ; measured % inhibition: 88

Lookup result for 547844 (antisense eG*e[5mC]*kA*d[5mC]*dT*dT*dA*dT*dT*dT*dG*dA*dT*kG*kA*e[5mC]) [compound 547844] ; measured % inhibition: 76

Lookup result for 547898 (e[5mC]*eT*kT*dT*dA*dA*dT*dA*dG*dG*d[5mC]*dA*dA*kT*kT*eG; antisense) [compound 547898] ; measured % inhibition: 28

Lookup result for 547892 (e[5mC]*eA*kA*dT*dT*dG*dT*dT*d[5mC]*d[5mC]*dG*dG*dT*kA*k[5mC]*eT; antisense) [compound 547892] ; measured % inhibition: 28

Lookup result for 547894 (eG*eG*k[5mC]*dA*dA*dT*dT*dG*dT*dT*d[5mC]*d[5mC]*dG*kG*kT*eA; antisense) [compound 547894] ; measured % inhibition: 91

Lookup result for 547880 (eT*eT*k[5mC]*dA*dA*d[5mC]*dA*d[5mC]*dT*dG*d[5mC]*dT*dA*kA*k[5mC]*e[5mC]; antisense) [compound 547880] ; measured % inhibition: 59

Lookup result for 547847 (antisense e[5mC]*eT*k[5mC]*dG*dA*dT*dG*dG*d[5mC]*dA*dA*dG*d[5mC]*kA*k[5mC]*eT) [compound 547847] ; measured % inhibition: 72

Lookup result for 547907 (eA*eT*kT*dT*d[5mC]*dT*dG*dA*dA*dA*dG*dG*dG*k[5mC]*kA*e[5mC]; antisense) [compound 547907] ; measured % inhibition: 27

Lookup result for 547910 (eA*e[5mC]*k[5mC]*dA*dA*dT*dT*dT*d[5mC]*dT*dG*dA*dA*kA*kG*eG; antisense) [compound 547910] ; measured % inhibition: 34
